Values compiled from PubChem BioAssay (NCI).

system: T-47D breast; experiment: NCI tumour cell line growth inhibition, 48 h
This section presents molecules with their documented TGI values.
QUANTITY_MEASURED: TGI

MOLECULE	VALUE_MEASURED
CC12CP(=O)(O)CC1C2(Cl)Cl (configuration not stated)	> 100 µM
O=P(O)(O)c1ccc2c(c1)OCCOCCOCCOCCO2	> 100 µM
O=C(CSc1nc2ccc(I)cc2c(=O)n1Cc1ccccc1)NNC(=S)Nc1ccccc1	> 100 µM
C=C(C)[C@@H]1C/C=C(/COC(C)=O)CC[C@H]2O[C@@]2(C)CC/C=C(\C)CC1	> 100 µM
CCCCCCCCCCCCCCCCCC1=NC(C)(C)CN1C(C)(C)CO	5.55 µM
CN1CCN(c2ccncc2S(=O)(=O)N2CCN(C)CC2)CC1	> 100 µM
COc1cc(/C=C2\C[C@H]3[C@@H]4CC=C5C[C@@H](O)CC[C@]5(C)[C@H]4CC[C@]3(C)[C@H]2O)ccc1OCCN1CCCCC1	16.2 µM
C/C(CC(O)(C(F)(F)F)C(F)(F)F)=N\NC(N)=S	> 10 µM
CC(C)(C)c1ccc(NS(=O)(=O)c2ccc(N)cc2)cc1	> 100 µM
Cc1nc(-c2cccnc2)sc1C(=O)CC(=O)C(=O)Nc1cccc(NC(=O)C(=O)CC(=O)c2sc(-c3cccnc3)nc2C)n1	> 100 µM
O=C(Nc1ccc(Cl)cc1)c1cc(NCc2cc(O)ccc2O)ccc1O	5.24 µM
CCCCCCCCCCCCCC(=O)OCC(CCS(=O)(=O)O[C@H]1CC[C@@]2(C)C(=CC[C@@H]3C2CC[C@]2(C)C(=O)CCC32)C1)OC(=O)CCCCCCCCCCCCC (some centres not stated)	> 100 µM
N#Cc1c(N)c(C(=O)c2ccc3c(c2)OCCO3)n2c1CCCC2	> 100 µM
C[C@@H](c1ccccc1)N1C[C@@H](c2ccc3c(c2)OCO3)[C@@H]2C(=O)CCC[C@@H]21	> 100 µM
CC1(C)CC[C@]2(C(=O)NCCNCCN)CC[C@]3(C)C(=CC[C@@H]4[C@@]5(C)CCC(=O)C(C)(C)[C@@H]5CC[C@]43C)[C@@H]2C1	3.95 µM
CCOc1ccc(Nc2ccnc3cc(Cl)ccc23)cc1	> 100 µM
COc1ccc2[nH]c3c(c2c1)CCc1c(OC)cccc1-3	> 100 µM
Cc1cc(C)c([I+]c2c(C)cc(C)cc2C)c(C)c1	2.19 µM
COc1ccc2c(c1)C(=O)/C(=C/c1ccc(O)cc1)O2	37.6 µM
CCOc1cc2c(cc1O)C=C[C@@H]1[C@@H]2CC[C@]2(C)[C@@H](O)CC[C@@H]12	77.4 µM
COc1cc(OCCCN2CCCC2)ccc1Nc1ncc(Cl)c(Nc2ccccc2P(C)(C)=O)n1	54.3 µM
C[C@H](CCC(=O)O)[C@H]1CC[C@H]2[C@@H]3[C@H](O)[C@H](O)[C@@H]4C[C@H](O)CC[C@]4(C)[C@H]3CC[C@]12C	> 100 µM
Cn1cnc(SC2=CC(=O)C=C3S[C@H]4C[C@@]23c2c(c(O)c3c5c2=NCCC=5C=N3)N4)c1CC(N)C(=O)O (some centres not stated)	38.3 µM
Cc1cccc2c(=O)c3c(sc12)c(NCCCN)nc1ccccc13	3.44 µM
COc1ccc(/C(=N/OCCCC(=O)O)c2cccs2)cc1	> 100 µM
COc1ccc2c(c1)c1ccc3c(c1n2C)C(=O)C=CC3=O	6.25 µM
C1=C2C3=[N+](CCCC3)CC2Cc2sccc21 (configuration not stated)	> 100 µM
COc1nc2c(c(=O)n1C)CN(c1ccccc1)C(=O)CN2C	> 100 µM
COc1ccc(-c2c(NC(=O)Nc3ccc(Cl)c(C(F)(F)F)c3)cnn2-c2ccc(S(N)(=O)=O)cc2)cc1	12.4 µM
O=C1NCN(c2ccccc2)C12CCN(CCCN1CCN(CCOC(c3ccccc3)c3ccccc3)CC1)CC2	7.18 µM
O=C(O)c1nn(-c2ccc(Cl)cc2)c2c1C(=O)c1ccccc1C2=O	> 100 µM
Fc1ccccc1-c1cc(=S)c2cc3c(cc2[nH]1)OCO3	> 100 µM
N#Cc1ccc2[nH]cc(Cc3c[nH]c4ccc(C#N)cc34)c2c1	32.8 µM
N#CC12CC(C=O)=C(N)C1(C#N)CC(C=O)=C2N (configuration not stated)	> 100 µM
CS(=O)(=O)c1ccc(C(=O)O[C@@H]2C(=O)N3CC[C@H]4OC(O)[C@@H]2[C@H]43)cc1 (some centres not stated)	> 100 µM
C/C(COc1ccc2oc(-c3ccccc3)cc(=O)c2c1)=N\O	> 100 µM
CCOC(=O)c1ccc(NCc2ccc3nc(OC)c(OC)nc3c2)cc1	> 100 µM
COP(=O)(/C=C/C(NC(=O)C(Cl)(Cl)Cl)c1ccccc1)OC (configuration not stated)	> 100 µM
COc1ccc(Cc2ccc3[nH]c(=O)cc(C)c3c2)cc1S(=O)(=O)O	> 100 µM
COc1cc(-c2n/c(=C\c3c(O)[nH]c4ccccc34)cc3c2=Nc2ccccc2-3)ccc1F	82 µM
Cc1ccc(N2C=Nn3c(nc4sc5c(c4c3=O)CCCC5)C2)cc1	> 100 µM
CC(=O)/C(=C/N1CC(=O)NC1=S)C(=O)Nc1ccccc1C	> 100 µM
